- assay_info: Plasma kinetics after intravenous administration in rats (ICP-AES)
- Format: in vivo
- run_conditions: 50 μmol of total gadolinium/kg i.v., calculated with WinNonlin from plasma concentrations
readout_kind: Elimination Half-Life of Blood (h)
Give bare numbers, in h.

>  <compound>
COCCOCC(=O)N(CCNC(=O)CNC(=O)C(C)N1CCN(CC(=O)[O-])CCN(CC(=O)[O-])CCN(CC(=O)[O-])CC1)CCC(F)(F)C(F)(F)C(F)(F)C(F)(F)C(F)(F)C(F)(F)C(F)(F)C(F)(F)F.[Gd+3] (stereo not shown) [Example 15]

>  <unit_name>
h

>  <measurement>
4.8

$$$$
>  <compound>
COCCOCCOCCOCC(=O)N(CCNC(=O)CNC(=O)C(C)N1CCN(CC(=O)[O-])CCN(CC(=O)[O-])CCN(CC(=O)[O-])CC1)CCC(F)(F)C(F)(F)C(F)(F)C(F)(F)C(F)(F)C(F)(F)C(F)(F)C(F)(F)F.[Gd+3] (stereo not shown) [Example 14]

>  <unit_name>
h

>  <measurement>
1.1

$$$$

Let us move to another entry and its Elimination Half-Life of Blood.
Record summary for CC(C(=O)NCC(=O)NCCN(CCC(F)(F)C(F)(F)C(F)(F)C(F)(F)C(F)(F)C(F)(F)C(F)(F)C(F)(F)F)C(=O)CO[C@H]1O[C@H](CO)[C@@H](O)[C@H](O)[C@@H]1O)N1CCN(CC(=O)[O-])CCN(CC(=O)[O-])CCN(CC(=O)[O-])CC1.[Gd+3] (stereo partly shown) [Example 1] : reported Elimination Half-Life of Blood = 4.8

* * *

So I've got a bunch of molecules here, and I need their Gd Content of Blood 24 Hours p.i. values.
- assay_info: Plasma kinetics after intravenous administration in rats (ICP-AES)
- Format: in vivo
- run_conditions: 50 μmol of total gadolinium/kg i.v., 24 hours p.i.
In your response, put the unit directly after the numeric value.

>  <molecule>
COCCOCC(=O)N(CCNC(=O)CNC(=O)C(C)N1CCN(CC(=O)[O-])CCN(CC(=O)[O-])CCN(CC(=O)[O-])CC1)CCC(F)(F)C(F)(F)C(F)(F)C(F)(F)C(F)(F)C(F)(F)C(F)(F)C(F)(F)F.[Gd+3] (stereo not shown) [Example 15]

>  <Gd Content of Blood 24 Hours p.i.>
0.2%

$$$$
>  <molecule>
COCCOCCOCCOCC(=O)N(CCNC(=O)CNC(=O)C(C)N1CCN(CC(=O)[O-])CCN(CC(=O)[O-])CCN(CC(=O)[O-])CC1)CCC(F)(F)C(F)(F)C(F)(F)C(F)(F)C(F)(F)C(F)(F)C(F)(F)C(F)(F)F.[Gd+3] (stereo not shown) [Example 14]

>  <Gd Content of Blood 24 Hours p.i.>
0.0%

$$$$
>  <molecule>
COCCOCCOCC(=O)N(CCNC(=O)CNC(=O)C(C)N1CCN(CC(=O)[O-])CCN(CC(=O)[O-])CCN(CC(=O)[O-])CC1)CCC(F)(F)C(F)(F)C(F)(F)C(F)(F)C(F)(F)C(F)(F)C(F)(F)C(F)(F)F.[Gd+3] (stereo not shown) [Example 5]

>  <Gd Content of Blood 24 Hours p.i.>
0.0%

$$$$

Record summary for CC(C(=O)NCC(=O)NCCN(CCC(F)(F)C(F)(F)C(F)(F)C(F)(F)C(F)(F)C(F)(F)C(F)(F)C(F)(F)F)C(=O)CO[C@H]1O[C@H](CO)[C@@H](O)[C@H](O)[C@@H]1O)N1CCN(CC(=O)[O-])CCN(CC(=O)[O-])CCN(CC(=O)[O-])CC1.[Gd+3] (stereo partly shown) [Example 1] : reported Gd Content of Blood 24 Hours p.i. = 0.7%
